All values here come from patent US20210395344A1.

- Test System: T1, COVID S1 RBD Fc fusion (Antigen 1) (SARS-CoV-2, UniProt P0DTC2 319-541)
- T1 construct: domain: RBD
- Method Description: phage ELISA
Listed binders paired with reported specificity ELISA, fold over background
Measurement Label: specificity ELISA, fold over background (fold over background)

Binder: SARS-CoV-2 variant 1-17 (antibody, V domains shown) VH: EVQLLESGGGLVQPGGSLRLSCAASGFTFSSYAMYWVRQAPGKGLEWVSAISGSAGSTYYADSVKGRFTISRDNSKNTLYLQMNSLRAEDTAVYYCARDTNDFWSGYSIFDPWGQGTLVTVSS VL: QSALTQPASVSGSPGQSITISCTGTSSDIGSYNLVSWYQQHPGKAPKLMIYEGTKRPSGVSNRFSGSKSGNTASLTISGLQAEDEADYYCCSYAGSRTYVFGGGTKLTVL
Unit Name: fold over background
Value Observed: 20.1

Binder: SARS-CoV-2 variant 1-37 (antibody, V domains shown) VH: EVQLLESGGGLVQPGGSLRLSCAASGFTFTSYAMNWVRQAPGKGLEWVTAISGSGGSTFYADSVKGRFTISRDNSKNTLYLQMNSLRAEDTAVYYCTRPPYGDYGDYWGQGTLVTVSS VL: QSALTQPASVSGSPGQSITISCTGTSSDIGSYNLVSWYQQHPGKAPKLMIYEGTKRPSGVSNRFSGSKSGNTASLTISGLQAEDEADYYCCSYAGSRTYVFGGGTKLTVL
Unit Name: fold over background
Value Observed: 2

Binder: SARS-CoV-2 variant 1-38 (antibody, V domains shown) VH: EVQLLESGGGLVQPGGSLRLSCAASGITFSSYAMSWVRQAPGKGLEWVSGISGSGGSTYYADSVKGRFTISRDNSKNTLYLQMNSLRAEDTAVYYCAKHGSGTIFGVVIAKYYFDYWGQGTLVTVSS VL: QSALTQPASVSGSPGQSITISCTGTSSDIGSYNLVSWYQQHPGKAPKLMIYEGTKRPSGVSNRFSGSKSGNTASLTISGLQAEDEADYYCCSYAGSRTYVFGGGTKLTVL
Unit Name: fold over background
Value Observed: 1.5
